- assaySystem: Antithrombin-III (Homo sapiens, UniProt P01008)
- Sequence (P01008 whole entry): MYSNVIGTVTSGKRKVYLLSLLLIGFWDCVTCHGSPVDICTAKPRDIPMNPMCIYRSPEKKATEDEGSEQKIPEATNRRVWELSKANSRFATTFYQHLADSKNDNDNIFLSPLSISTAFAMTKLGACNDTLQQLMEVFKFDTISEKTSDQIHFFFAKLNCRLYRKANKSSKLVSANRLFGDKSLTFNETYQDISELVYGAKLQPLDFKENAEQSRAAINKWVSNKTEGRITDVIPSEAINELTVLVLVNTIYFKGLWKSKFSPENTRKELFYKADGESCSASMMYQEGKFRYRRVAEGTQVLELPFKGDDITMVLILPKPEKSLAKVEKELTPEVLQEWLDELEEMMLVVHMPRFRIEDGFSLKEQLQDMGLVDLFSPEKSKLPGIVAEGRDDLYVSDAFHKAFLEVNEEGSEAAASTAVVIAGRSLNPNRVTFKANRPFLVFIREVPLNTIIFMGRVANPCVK
measure: IC50 (nM)
Answer format: numeric, nM implied, no suffix.

Per the records, this compound ( N=C(N)c1ccc(C[C@@H](NC(=O)CNS(=O)(=O)c2ccc3ccccc3c2)C(=O)N2CCCCC2)cc1 ) has IC50 equal to 570
